Sourced from the supplement of paper PMC8728848

# System name: GlcNAc(b1-2)Man(a1-3)[GlcNAc(b1-2)Man(a1-6)]Man(b1-4)GlcNAc(b1-4)[Fuc(a1-6)]GlcNAc
# Protocol text: glycan array binding signal (z-score within array); higher = stronger binding
# Experimental context: glycan notation: IUPAC condensed, linker removed
The entries come from a sample that favours the strongest signals as a whole.
Quantity: glycan array binding signal (z-score)
The reply should be a number, written without any unit.

Sample GS13455A-bfa-343-25-343 (Bacteroides fragilis) (protein) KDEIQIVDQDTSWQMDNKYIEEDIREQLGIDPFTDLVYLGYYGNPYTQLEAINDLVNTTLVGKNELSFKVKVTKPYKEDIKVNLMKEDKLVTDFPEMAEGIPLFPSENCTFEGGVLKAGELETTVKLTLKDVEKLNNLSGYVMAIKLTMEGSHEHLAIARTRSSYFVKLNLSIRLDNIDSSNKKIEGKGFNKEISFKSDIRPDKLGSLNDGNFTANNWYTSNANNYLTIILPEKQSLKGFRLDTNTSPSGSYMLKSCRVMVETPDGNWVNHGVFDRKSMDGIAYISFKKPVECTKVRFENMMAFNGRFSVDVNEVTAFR ; glycan array binding signal (z-score) observed: -0.409
